Listed next: entries and their corresponding pEC50.
SYSTEM TESTED: T1, recombinant human Claudin 18.2 protein (GenScript, Z03504) (human, UniProt P56856-2 1-261, limits assumed)
T1 construct: Bought recombinant protein
PROTOCOL NOTES: indirect ELISA, plate coated with recombinant human Claudin 18.2, anti-human IgG Fc-HRP detection
# pEC50 = -log10(concentration in molar units)

The recorded pEC50 for entry AHP32982 (antibody, V domains shown) VH: QVQLVQSGGGLVQPGGSLRLSCAASRNIGILSTMGWYRQAPGKQRELVATITRGGSTNYGEFVKGRFTISRDNAKNTVYLQMNSLKPEDTAVYYCNVDESWLGTQSYWGRGPLVTVSS VL: DIVMTQSPSSVSASVGDRVTITCRASQGISSWLAWYQQKPGKAPKLLIYAASSLQSGVPSRFSGSGSGTDFTLTISSLQPEDFATYYCQQANSFPLTFGGGTKVEIK equals 9.92

Entry AHP29153 (antibody, V domains shown) VH: QLQQVESGGGLVQPGGSLRLSCAASRNIGILSTMGWYRQAPGKQRELVATITRGGSTNYGEFVKGRFTISRDNAKNTVYLQMNSLKPEDTAVYYCNVDESWLGTQSYWGRGTTVTVSS VL: QSVLTQPASVSGSPGQSITISCTGTSSDVGGYKYVSWYQQPPGKAPKLIIYEVTKRPSGVPDRFSGSKSGNTASLTVSGLQAEDEADYYCLSYAGSNNVFGTGTKLTVL , pEC50 reported as 9.90

Looking up AHP32913 (antibody, V domains shown) VH: QVQLMQSGGGLVQPGGSLRLSCAASRNIGILSTMGWYRQAPGKQRELVATITRGGSTNYGEFVKGRFTISRDNAKNTVYLQMNSLKPEDTAVYYCNVDESWLGTQSYWGRGTQVTVSS VL: QAVVTQEPSLTVSPGGTVTLTCGSSTGPVTSGHYPHWYQQKPGQAPKTLIFDTSHKHPWTPAQFSGSLLGGKAALTLSGAHPEDEAEYYCLLSYSGVRVFGGGTQLIIL , I found its pEC50 recorded as 9.95

The binder listed as AHP30826 (antibody, V domains shown) VH: QVQLQQSGGGSVQAGGSLRLSCAASGTILSINAMGWYRQAPGKQRELVATITTGGNANYAHSVKGRFTISRDNAKNTVYLQMNNLKPEDTAVYYCNAEQVVVGFLQAYDVWGQGTTVTVSS VL: DVVMTQSPLSLPVTLGQAASISCRSSQSLVHGDGNTYLNWIQQRPGQSPRRLIYKVSNRDSGVPDRFSGSGSGTDFTLKISRVEAEDVGVYYCMQGTHWPSTFGPGTKVDIK shows pEC50 equal to 10.04

Sample AHP31548 (antibody, V domains shown) VH: QVQLMQSGGGLVQPGGSLRLSCAASRNIGILSTMGWYRQAPGKQRELVATITRGGSTNYGEFVKGRFTISRDNAKNTVYLQMNSLKPEDTAVYYCNVDESWLGTQSYWGRGTTVTVSS VL: QSALTQPPSASGSPGQSVTISCTGTSSDIGTYNFVSWYQQHPGKAPKLIIYEVSKRPSGVPDRFSGSKSGNTASLTVSGLQAEDEADYYCKSYPRVFGTGTKLTAL ; pEC50 observed: 10.13

For record AHP32919 (antibody, V domains shown) VH: QVQLQESGGGVVQPGGSLRLSCAASQSIGLLSTMGWYRQAAGKQRELVATITRGGSTNYGEFVKGRFTISRDNAKNTVYLQMNSLKPEDTAVYYCTADESWLGTQSYWGRGTRVTVSS VL: QAGLTQPPSASGTPGQGVTISCSGSSSNIGSNSVNWYQQLPGTAPKLLMHSNNERSSGVPDRFSGSKSGSSASLAISGLQSEDAADYFCGAWDDSLNGYVFGTGTKLTVL the listed pEC50 is 10.10
